Data credit: patent US20040127537A1

EXPERIMENT_SUMMARY: Example 6: buffer capacity titration of parecoxib sodium formulations with added buffer
Type: physicochemical
PROTOCOL_CONDITIONS: PEG 600/WFI 65/35 % by weight; parecoxib sodium 40 mg/ml f.a.e.; acid to adjust pH 8.5 to 7.4, with versus without buffer
MEASUREMENT_KIND: Improvement in buffer capacity

In: # Improvement in buffer capacity lookup, item O=C1O[C@H]([C@@H](O)CO)C([O-])=C1O.[Na+] [sodium ascorbate]
Out: 14-37%^1

In: # Improvement in buffer capacity lookup, item NCC(=O)O
Out: negligible

In: # Improvement in buffer capacity lookup, item CC(O)C(=O)[O-].[Na+] (stereo not shown) [sodium lactate]
Out: negligible

In: # Improvement in buffer capacity lookup, item CC(=O)[O-].[Na+] [sodium acetate]
Out: negligible

In: # Improvement in buffer capacity lookup, item N=C(N)NCCC[C@H](N)C(=O)O
Out: negligible

In: # Improvement in buffer capacity lookup, item NC(CO)(CO)CO
Out: 63%

Next item in the queue.
In: # Improvement in buffer capacity lookup, item O=C([O-])/C=C\C(=O)[O-].[Na+].[Na+] [sodium maleate]
Out: 21%
